Target: Histamine H2 receptor (Cavia porcellus)
Test: Histamine H2 receptor antagonistic activity at a concentration of 0.3 and 1 uM on the isolated guinea pig right atrium.
Assay type: functional, tissue-based
Conditions: Cardiac atrium
Lab note: compare pKB against 7. Equal or greater, write MET. Smaller, write NOT MET.

Some solved cases for reference:
MOLECULE | CLASS_ASSIGNMENT
N#CN/C(=N\CCNC(=O)c1cc(I)c(N)c(I)c1)NCCCCOc1cccc(CN2CCCCC2)c1 | MET
N#CN/C(=N\CCCOc1cccc(CN2CCCCC2)c1)NCC(O)CNC(=O)c1ccccc1 (stereo not given) | MET
N#CN/C(=N\CCNS(=O)(=O)c1ccccc1)NCCCOc1cccc(CN2CCCCC2)c1 | NOT MET

Now for a further molecule.
Prompt: Check this molecule for pKB at or above 7: `N#CN/C(=N\CCNC(=O)c1cccc(N)c1)NCCCOc1cccc(CN2CCCCC2)c1`
Completion: MET

Taken from ChEMBL document CHEMBL1126247.
